molecular target: Calpain-1 catalytic subunit (Sus scrofa); experiment: Inhibition of pig erythrocyte mu-calpain by fluorometric assay
Sequence (P35750 whole entry): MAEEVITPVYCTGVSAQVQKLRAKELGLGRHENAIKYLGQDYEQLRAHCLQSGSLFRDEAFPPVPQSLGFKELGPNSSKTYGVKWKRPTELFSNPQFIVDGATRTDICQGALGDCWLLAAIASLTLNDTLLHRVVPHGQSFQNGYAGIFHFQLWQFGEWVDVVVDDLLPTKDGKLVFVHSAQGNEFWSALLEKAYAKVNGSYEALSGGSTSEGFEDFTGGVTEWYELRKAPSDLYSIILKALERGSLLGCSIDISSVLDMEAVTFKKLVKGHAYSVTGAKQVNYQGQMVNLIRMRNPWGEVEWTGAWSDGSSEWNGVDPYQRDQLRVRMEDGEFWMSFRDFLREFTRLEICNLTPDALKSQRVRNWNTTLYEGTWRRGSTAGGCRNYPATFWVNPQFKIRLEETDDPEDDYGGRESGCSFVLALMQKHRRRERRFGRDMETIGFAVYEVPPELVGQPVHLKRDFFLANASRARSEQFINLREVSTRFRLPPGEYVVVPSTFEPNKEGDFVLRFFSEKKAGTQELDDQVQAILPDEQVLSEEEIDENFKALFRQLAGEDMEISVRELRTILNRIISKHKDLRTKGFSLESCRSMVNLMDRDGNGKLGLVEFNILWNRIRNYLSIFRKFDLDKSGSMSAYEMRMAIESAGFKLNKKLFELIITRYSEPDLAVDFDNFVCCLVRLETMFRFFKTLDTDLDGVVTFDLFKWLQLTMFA
pKi: −log10 of the molar value. Residues, ends and D or L forms follow the SMILES beside them. *: point of attachment. Cbz = O=C(OCc1ccccc1)*

[
  {
    "Compound": "CC(C)C[C@H](NC(=O)C(c1ccccc1)c1ccccc1)C(=O)NC(Cc1ccccc1)C(=O)C(=O)O (mixture of isomers)",
    "pKi": 6.97
  },
  {
    "Compound": "CC(C)[C@H](NC(=O)OCc1ccccc1)C(=O)N[C@H](C=O)Cc1ccccc1 (Cbz-Val-Phe-aldehyde)",
    "pKi": 8.00
  },
  {
    "Compound": "COC(=O)C(=O)C(Cc1ccccc1)NC(=O)[C@H](CC(C)C)NC(=O)CCC1CCCCC1 (mixture of isomers)",
    "pKi": 5.98
  },
  {
    "Compound": "COC(=O)C(=O)C(Cc1ccccc1)NC(=O)[C@H](CC(C)C)NC(=O)CC12CC3CC(CC(C3)C1)C2 (mixture of isomers)",
    "pKi": 6.35
  },
  {
    "Compound": "CC(C)C[C@H](NC(=O)CC1c2ccccc2-c2ccccc21)C(=O)NC(Cc1ccccc1)C(=O)C(=O)O (mixture of isomers)",
    "pKi": 8.10
  },
  {
    "Compound": "COC(=O)C(=O)C(Cc1ccccc1)NC(=O)[C@H](CC(C)C)NC(=O)C(c1ccccc1)c1ccccc1 (mixture of isomers)",
    "pKi": 6.03
  },
  {
    "Compound": "COC(=O)C(=O)C(Cc1ccccc1)NC(=O)[C@H](CC(C)C)NC(=O)CC1c2ccccc2-c2ccccc21 (mixture of isomers)",
    "pKi": 5.92
  },
  {
    "Compound": "CC(C)C[C@H](NC(=O)CCC1CCCCC1)C(=O)NC(Cc1ccccc1)C(=O)C(=O)O (mixture of isomers)",
    "pKi": 7.30
  },
  {
    "Compound": "CC(C)C[C@H](NC(=O)CC(c1ccccc1)c1ccccc1)C(=O)NC(Cc1ccccc1)C(=O)C(=O)O (mixture of isomers)",
    "pKi": 7.20
  },
  {
    "Compound": "CC(C)C[C@H](NC(=O)CC12CC3CC(CC(C3)C1)C2)C(=O)NC(Cc1ccccc1)C(=O)C(=O)O (mixture of isomers)",
    "pKi": 7.39
  }
]
